Test system: Bacillus subtilis
Assay: cleaved RNA product abundance (RNA/gDNA barcode ratio) relative to median wild-type variant (ratio to wild type); higher = more accumulation of the downstream cleavage product
Details: experiment (reporter, strain, medium): exp 8a: truncated aprE reporter, strain BJT201 with 2% xylose (RNase J1 expressed); cleavage site: glnRA (positions -5 to +31 mutated)
Reported cleaved RNA product abundance values for a set of sequences
Answer as a number with no unit attached.

Reference set (6 entries):
INSERT INTO results (ordered_residues, tested_on, numeric_result) VALUES
  ('CGACATGTCCCGCTTCTTTCATTAATCCGTTAGCAACTTTTTTGCTATATACATTTAACTTTTAAGAGGAGGAAT', 'Bacillus subtilis', 1.81),
  ('CGACATGTCCCGCTTCTTTCATTAATCCGTTAGTAACTGTTGTGCTATATACATTTACCTTTTAAGAGGAGGAAT', 'Bacillus subtilis', 0.358),
  ('CGACATGTCCCGCTTCTTTCATTAATTCGTTAGCAACTATTTTGCTATATACATTTACCTTTTAAGAGGAGGAAT', 'Bacillus subtilis', 1.64),
  ('CGACATGTCCCGCTTCTTTCATTAATACGTTAGCAACTGTTTTACTATATACATTTACCTTTTAAGAGGAGGAAT', 'Bacillus subtilis', 0.547),
  ('CGACATGTCCCGCTTCTTTCATTAATCCGTTAGAAACTGTTTTGCTGTATACATTCATCTTTTAAGAGGAGGAAT', 'Bacillus subtilis', 0.0887),
  ('CGACATGTCCCGCTTCTTTCATTAATCCGTTAGCAACCGTTTTGGTATATACATTTACCTTTTAAGAGGAGGAAT', 'Bacillus subtilis', 0.187);

(Q) Form field: reported cleaved RNA product abundance of CGACATGTCCCGCTTCTTTCATTAATCCGTTAGCAAATGTTTTGCTATAAACATTTACCTTTTAAGAGGAGGAAT
(A) 0.584

(Q) Form field: reported cleaved RNA product abundance of CGACATGTCCCGCTTCTTTCATTAATCCGTTAGCAACTGTTTAGCTATATACATTTAACTTTTAAGAGGAGGAAT
(A) 0.462

(Q) Form field: reported cleaved RNA product abundance of CGACATGTCCCGCTTCTTTCATTAATCTGATAGCAACTGTTTTGCTATATACATTTACCTTTTAAGAGGAGGAAT
(A) 0.81

(Q) Form field: reported cleaved RNA product abundance of CGACATGTCCCGCTTCTTTCATTAATCCGTTAGCAACTGTTTTACTATATACAATTACCTTTTAAGAGGAGGAAT
(A) 0.613

(Q) Form field: reported cleaved RNA product abundance of CGACATGTCCCGCTTCTTTCATTAATCCGTTAGCAACTGTTTTGCTATATACATTTAACTTTTAAGAGGAGGAAT
(A) 1.24

(Q) Form field: reported cleaved RNA product abundance of CGACATGTCCCGCTTCTTTCATTATTCCGTTAGCAACTGTTTTGCTCTATACATTTACCTTTTAAGAGGAGGAAT
(A) 0.354
